Test: Quantitative highthroughput screen to assess conditional lethalithy of P12 Ichikawa cells grown in RPMI1640 with untreated serum (RPMI+s) (AID 1963881); also: nearly all actives have a fitted effect of over 35% in size;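 as to viability: 100% = DMSO wells and 0% = empty wells without cells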
Details: ATP luminescence, 48 h; viability; series mostly up to 45.8 µM
Procedure: Assay Provider: Jason Cantor Ph.D. Department of Biochemistry University of Wisconsin-Madison, Madison, WI, USA Chemical screening studies have identified drug sensitivities across hundreds of cancer cell lines but most putative therapeutics fail to translate. […] Sets of conditional anticancer compounds spanned phases of clinical development and included non-oncology drugs were assessed. […] 6; Detection; Luminescence, Viewlux PerkinElmer. […]
Results filed as inconclusive are left out. Active and inactive are the calls of the source. Calls follow the shape of the dose curve; as a rule, active = well fitted cell-killing curve with a large enough effect; inconclusive = small, poorly fitted or top-dose-only effect; inactive = flat fitted curve, though single readings scatter.
Answer with one of the outcomes given here: true (1) for active, false (0) for inactive

[Q] Test call for this molecule, please: Nc1ccc(C(=O)c2cc3c(ccc4ccccc43)[nH]2)cc1
[A] true (1)

[Q] Recorded test call requested for C=CC(=O)Nc1cccc(Nc2nc(NC3CCC(N(C)C)CC3)nc3c2ncn3C(C)C)c1 (stereo not given)
[A] true (1)

[Q] Hi, sorry to bother you, what did the test record for CCCCc1nc2cc(C=CC(=O)NO)ccc2n1CCN(CC)CC ?
[A] true (1)

[Q] Record lookup: outcome of this test for O=C1CCc2ccc(OCCCCN3CCN(c4cccc(Cl)c4Cl)CC3)cc2N1 ?
[A] false (0)

[Q] Per the records of this test, what outcome belongs to CN1CCC(=C2c3ccccc3C=Cc3ccccc32)CC1 ?
[A] false (0)

[Q] Tell me the recorded outcome of this test for O=C(O)[C@H]1O[C@H](Oc2cc3oc(-c4ccccc4)cc(=O)c3c(O)c2O)[C@H](O)[C@@H](O)[C@H]1O .
[A] true (1)

[Q] Record lookup: outcome of this test for COC(=O)Nc1cc(Nc2cc(NC3CC3)c3ncc(C#N)n3n2)c(Cl)c(N2CCN(C)CC2)c1 ?
[A] true (1)

[Q] Field: outcome | Entry: CCN1C[C@H](C)n2c(c(O)c3c(=O)n(Cc4ccc(F)c(Cl)c4)nc(C(=O)NC)c32)C1=O
[A] false (0)

[Q] Could you check what this test reported for CCCOc1ccc2nc(NC(=O)OC)[nH]c2c1 ?
[A] true (1)

[Q] Hi, do you know how Cc1cnc(Nc2ccc(CN3CCOCC3)cc2)nc1Nc1cccc(S(=O)(=O)NC(C)(C)C)c1 came out in this test?
[A] true (1)

[Q] Outcome? CCOc1ccc(Nc2nc(-c3c(C)nc4ccccn34)cs2)cc1
[A] true (1)

[Q] Returns: the outcome recorded for O=C1NC(=O)C(=Cc2ccc3c(c2)OC(F)(F)O3)S1 in this assay.
[A] false (0)

[Q] Assay result, entry CCN(CCO)CCCC(C)Nc1ccnc2cc(Cl)ccc12 (stereo not given) — outcome?
[A] true (1)

[Q] // param item: C[C@]12CC[C@H](O)CC1=CCC1C2CC[C@]2(C)C(n3cnc4ccccc43)=CCC12 (stereo not given in full) ; yields the recorded call
[A] false (0)

[Q] What outcome does the record of this test show for O=C(NC[C@H](O)CN1CCc2ccccc2C1)c1cc(NC2COC2)ncn1 ?
[A] false (0)

[Q] Entry CC1(C)CNc2cc(NC(=O)c3cccnc3NCc3ccncc3)ccc21 : call = ?
[A] false (0)

[Q] Assay outcome for Cc1cccc(CN2CCN(C(c3ccccc3)c3ccc(Cl)cc3)CC2)c1 (stereo not given) : what was it?
[A] false (0)

Data origin, for the record: PubChem BioAssay (NCATS)
